Entry source: paper PMC7606641

Reported 125I-IRA remaining intact, Whole Brain, 10 min is given for each of the following substances.
Design: species or system CD-1 mice
Details: mouse, in vivo, iv
I only need the number, in %, no unit after it.

Solved entries (count: 5):
substance	value-reported
HXEGTFTSDVSSYLEGQAAK^bEFIAWLVRGRG-OH [Semaglutide]	95.55
YXEGTFTSDYSIYLDKQAAXEFVNWLLAGGPSSGAPPPSK-NH2 [Peptide 18]	107.8
YXEGTFTSDYSIYLDKQAAXEFVNWLLAGGPSSGAPPPSC-NH2 [Peptide 17]	78.98
YXEGTFTSDYSIYLDKQAAXEFVC ^*WLLAGGPSSGAPPPSK-NH2 [Peptide 20]	99.4
YXEGTFTSDYSIYLDKQAAXEFVNWLLAGGPSSGAPPPSKKKKKK-NH2 [DA-JC4]	69.63

stdin: Give the measured 125I-IRA remaining intact, Whole Brain, 10 min of YXEGTFTSDYSIYLDKQAAXEFVNWLLAGGPSSGAPPPSK-NH2 [DA3-CH] .
stdout: 71.59

stdin: Give the measured 125I-IRA remaining intact, Whole Brain, 10 min of HAEGTFTSDVSSYLEGQAAK^aEFIAWLVRGRG-OH [Liraglutide] .
stdout: 100.1

====

Set-up: species or system CD-1 mice
Settings: mouse, in vivo, iv
assay-endpoint: Peak percent of injected 125I-IRA taken up per gram brain tissue (%Inj/g)
Please answer in the form of a number followed by its unit of measurement.

Solved entries (count: 3):
substance	value-reported
YXEGTFTSDYSIYLDKQAAXEFVNWLLAGGPSSGAPPPSKKKKKK-NH2 [DA-JC4]	0.17%
YXEGTFTSDYSIYLDKQAAXEFVC ^*WLLAGGPSSGAPPPSK-NH2 [Peptide 20]	0.05%
YXEGTFTSDYSIYLDKQAAXEFVNWLLAGGPSSGAPPPSC-NH2 [Peptide 17]	0.15%

stdin: Give the measured Peak percent of injected 125I-IRA taken up per gram brain tissue (%Inj/g) of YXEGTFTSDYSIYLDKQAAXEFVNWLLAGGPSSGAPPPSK-NH2 [DA3-CH] .
stdout: 0.08%

====

Reported Log Partition Coefficient (Log P) is given for each of the following substances.
Type: physicochemical
Details: pH 7.5

Solved entries (count: 3):
substance	Log Partition Coefficient (Log P)
YXEGTFTSDYSIYLDKQAAXEFVC ^*WLLAGGPSSGAPPPSK-NH2 [Peptide 20]	−2.249 ± 0.0671
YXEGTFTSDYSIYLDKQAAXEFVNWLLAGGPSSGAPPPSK-NH2 [Peptide 18]	−0.604 ± 0.0418
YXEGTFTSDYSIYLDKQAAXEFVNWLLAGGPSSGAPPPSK-NH2 [DA3-CH]	−2.325 ± 0.1318

stdin: Give the measured Log Partition Coefficient (Log P) of YXEGTFTSDYSIYLDKQAAXEFVNWLLAGGPSSGAPPPSKKKKKK-NH2 [DA-JC4] .
stdout: −2.520 ± 0.1184

stdin: Give the measured Log Partition Coefficient (Log P) of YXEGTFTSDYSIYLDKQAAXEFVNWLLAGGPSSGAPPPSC-NH2 [Peptide 17] .
stdout: −2.564 ± 0.5921

stdin: Give the measured Log Partition Coefficient (Log P) of HXEGTFTSDVSSYLEGQAAK^bEFIAWLVRGRG-OH [Semaglutide] .
stdout: −1.452 ± 0.0199

====

Set-up: species or system CD-1 mice
Details: mouse, in vivo, iv
assay-endpoint: Half-Time Serum Clearance t1/2 (min)
I only need the number, in min, no unit after it.

substance	value-reported
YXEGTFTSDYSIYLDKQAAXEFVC ^*WLLAGGPSSGAPPPSK-NH2 [Peptide 20]	43

stdin: Give the measured Half-Time Serum Clearance t1/2 of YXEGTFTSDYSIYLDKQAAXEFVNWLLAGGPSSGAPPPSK-NH2 [Peptide 18] .
stdout: 32.37

stdin: Give the measured Half-Time Serum Clearance t1/2 of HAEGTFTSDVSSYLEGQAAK^aEFIAWLVRGRG-OH [Liraglutide] .
stdout: 167.22

stdin: Give the measured Half-Time Serum Clearance t1/2 of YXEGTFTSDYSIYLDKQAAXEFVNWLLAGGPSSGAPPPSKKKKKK-NH2 [DA-JC4] .
stdout: 151.94

stdin: Give the measured Half-Time Serum Clearance t1/2 of HXEGTFTSDVSSYLEGQAAK^bEFIAWLVRGRG-OH [Semaglutide] .
stdout: 149.31

stdin: Give the measured Half-Time Serum Clearance t1/2 of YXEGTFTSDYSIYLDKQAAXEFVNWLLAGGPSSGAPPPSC-NH2 [Peptide 17] .
stdout: 39.61

stdin: Give the measured Half-Time Serum Clearance t1/2 of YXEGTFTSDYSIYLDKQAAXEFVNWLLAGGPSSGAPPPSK-NH2 [DA3-CH] .
stdout: 42.57

====

Parameters: species or system CD-1 mice
Conditions: mouse, in vivo, iv

substance	Blood to Brain Influx Ki
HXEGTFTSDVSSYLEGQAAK^bEFIAWLVRGRG-OH [Semaglutide]	ns
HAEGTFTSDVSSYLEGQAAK^aEFIAWLVRGRG-OH [Liraglutide]	ns
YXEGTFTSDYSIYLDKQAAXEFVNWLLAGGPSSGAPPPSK-NH2 [Peptide 18]	ns
